- systemUnderTest: UniProt:P49674
- Sequence (P49674 whole entry, looked up): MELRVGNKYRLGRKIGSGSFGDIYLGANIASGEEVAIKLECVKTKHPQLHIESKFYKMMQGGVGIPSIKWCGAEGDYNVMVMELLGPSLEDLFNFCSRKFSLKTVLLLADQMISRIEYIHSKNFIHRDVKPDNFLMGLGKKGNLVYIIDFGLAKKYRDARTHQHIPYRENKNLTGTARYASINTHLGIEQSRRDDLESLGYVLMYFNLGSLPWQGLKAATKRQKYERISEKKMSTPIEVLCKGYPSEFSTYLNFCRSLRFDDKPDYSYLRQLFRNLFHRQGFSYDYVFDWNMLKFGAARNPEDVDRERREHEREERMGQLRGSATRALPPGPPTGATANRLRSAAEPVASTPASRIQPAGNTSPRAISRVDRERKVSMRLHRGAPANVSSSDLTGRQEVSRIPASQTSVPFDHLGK
- assayText: KINOMEscan competition binding
- testContext: compound 10.0 µM
valueType: kinase still bound, per cent of control (%)
Answers are plain numbers, in %.

Answered cases to consult:
compound=CCOc1cc(N2CCC(O)CC2)ccc1Nc1ncc2c(n1)N(C)c1ccccc1C(=O)N2C valuetype="kinase still bound, per cent of control" value=100
compound="CC1=C(C(=O)Nc2cc3cn[nH]c3cc2F)C(c2ccc(C(F)(F)F)cc2)CC(=O)N1 (centres undefined)" valuetype="kinase still bound, per cent of control" value=79
compound=CNC(=O)Nc1ccc(-c2nc(N3CC4CCC(C3)O4)c3cnn(C4CCC5(CC4)OCCO5)c3n2)cc1 valuetype="kinase still bound, per cent of control" value=39

Prompt line: So what does the record say about kinase still bound, per cent of control for `COc1ccc(N(C(=O)Oc2cc(C(=O)Nc3cccc(C(F)(F)F)c3)ccc2C)c2ccnc(Nc3ccc(N4CCN(C)CC4)cc3)n2)c(OC)c1` ?
Response line: 100

###

- systemUnderTest: CSK (human) (UniProt P41240)
- Sequence (P41240 whole entry, looked up): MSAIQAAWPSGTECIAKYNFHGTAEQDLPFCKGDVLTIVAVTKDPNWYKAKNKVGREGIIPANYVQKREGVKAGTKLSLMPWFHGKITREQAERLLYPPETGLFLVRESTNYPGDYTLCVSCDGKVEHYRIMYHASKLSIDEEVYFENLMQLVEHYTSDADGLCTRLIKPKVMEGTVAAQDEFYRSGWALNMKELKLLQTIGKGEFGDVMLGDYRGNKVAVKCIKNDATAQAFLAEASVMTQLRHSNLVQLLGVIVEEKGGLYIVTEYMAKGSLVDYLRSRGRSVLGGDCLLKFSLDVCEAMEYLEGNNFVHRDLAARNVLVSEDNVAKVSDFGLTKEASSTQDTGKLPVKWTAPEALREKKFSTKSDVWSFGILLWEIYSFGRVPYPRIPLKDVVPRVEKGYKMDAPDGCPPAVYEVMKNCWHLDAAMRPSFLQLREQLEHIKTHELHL
- assayText: KINOMEscan competition binding
- testContext: compound 10.0 µM
Labelling field: enter y if recorded kinase still bound, per cent of control is less than 90%. Enter n if it equals or exceeds that cut-off.

Answered cases to consult:
compound=COc1cc2c(Nc3ccc(NC(=O)c4ccccc4)cc3)ncnc2cc1OCCCN1CCOCC1 systemundertest="CSK (human) (UniProt P41240)" label=y
compound=C=CC(=O)Nc1ccc(C(=O)c2sc(Nc3ccc(N4CCN(C)CC4)cc3OC)nc2N)cc1 systemundertest="CSK (human) (UniProt P41240)" label=y
compound=N#Cc1cc(-c2ccnc(Nc3ccc(-n4cnc(-c5cccnc5)n4)cc3)n2)cc(N2CCOCC2)c1 systemundertest="CSK (human) (UniProt P41240)" label=y
compound=Cc1cn(-c2cc(C(=O)Nc3ccc(C)c(NC(=O)c4ccno4)c3)cc(C(F)(F)F)c2)cn1 systemundertest="CSK (human) (UniProt P41240)" label=y
compound=O=c1[nH]c2ccccc2n1C1CCN(Cc2ccc(-c3nc4cc5[nH]cnc5cc4nc3-c3ccccc3)cc2)CC1 systemundertest="CSK (human) (UniProt P41240)" label=n
compound=CCCS(=O)(=O)Nc1ccc(F)c(C(=O)c2c[nH]c3ncc(Cl)cc23)c1F systemundertest="CSK (human) (UniProt P41240)" label=y
compound=CNC(=O)Nc1ccc(-c2nc(N3CC4CCC(C3)O4)c3cnn(C4CCC5(CC4)OCCO5)c3n2)cc1 systemundertest="CSK (human) (UniProt P41240)" label=n
compound=CCN1CCN(Cc2ccc(NC(=O)c3ccc(C)c(/C=C/c4cnc5[nH]ccc5c4OC)c3)cc2C(F)(F)F)CC1 systemundertest="CSK (human) (UniProt P41240)" label=y
compound="CC1=C(C(=O)Nc2cc3cn[nH]c3cc2F)C(c2ccc(C(F)(F)F)cc2)CC(=O)N1 (centres undefined)" systemundertest="CSK (human) (UniProt P41240)" label=n
compound=CCOc1cc(N2CCC(O)CC2)ccc1Nc1ncc2c(n1)N(C)c1ccccc1C(=O)N2C systemundertest="CSK (human) (UniProt P41240)" label=n

Prompt line: Please indicate whether the reported kinase still bound, per cent of control of `COc1cc2ncnc(Nc3cccc(Cl)c3)c2cc1OC` is strictly below 90%.
Response line: y

Prompt line: Please indicate whether the reported kinase still bound, per cent of control of COc1cc(C)c(Sc2cnc(NC(=O)c3ccc(CNC(C)C(C)C)cc3)s2)cc1C(=O)N1CCN(C(C)=O)CC1 (centres undefined) is strictly below 90%.
Response line: n
